Test system: NCI-H23
assay.procedure: NCI tumour cell line growth inhibition, 48 h
The source made the active and inactive calls. No stated cut-off is given here; in the data, active = GI50 up to about 1.1 µM and inactive = higher.
Select the correct class. Options are active, inactive and nothing else.

Use the examples below as a reference point.
• O=C(CCN1CCCC1)Nc1ccc2sc3ccccc3c(=O)c2n1 = inactive
• O=C1N=C(S)NNC12c1ccccc1-c1ccccc12 = inactive
• Sc1ncnc2c1ncn2C1CCCO1 (configuration not stated) = inactive
• OCCCCCCOc1ccc(-c2cc(-c3ccccn3)nc(-c3ccccn3)c2)cc1 = active
• O=C(N/N=C/c1c(-c2ccccc2)no[n+]1[O-])N1CCOCC1 = inactive

Answer briefly: the call reported for OC[C@H]1C[C@@H]2Cc3ccccc3N2N1 in this assay.
inactive

Answer briefly: the call reported for COc1ccc(/N=C(C)/C(C)=N/c2ccc(OC)cc2)cc1 in this assay.
inactive

Answer briefly: the call reported for CO[C@]1(c2ccc([N+](=O)[O-])cc2)Oc2ccccc2C(=O)[C@@]1(Nc1ccc(C=O)cc1)OC in this assay.
inactive

Answer briefly: the call reported for COc1cccc(N2N=C3c4ccccc4-n4c(nc5ccccc54)C3C2N)c1 (configuration not stated) in this assay.
inactive

Answer briefly: the call reported for CC(C)C(/N=C1\CC2CCC1(C(=O)Nc1ccccc1O)C2(C)C)c1ccccc1 (configuration not stated) in this assay.
inactive

Answer briefly: the call reported for Cn1c(=O)nc2n(-c3ccc(Cl)cc3)c3cc(Cl)ccc3nc-2c1=O in this assay.
inactive

Answer briefly: the call reported for O=C1C=CC2(O[C@H](C3CCCCC3)[C@@H](C3CCCCC3)O2)C(SC(=O)c2ccccc2)C1 (some centres not stated) in this assay.
inactive

Answer briefly: the call reported for COC1C(N)C(OC2C(Oc3cccc4c(O)c5c(=O)oc6ccc(C)c7c(=O)oc(c34)c5c67)OC(C)C(O)C2(C)O)OC(C)C1O (configuration not stated) in this assay.
active

Answer briefly: the call reported for Cc1nsc2cc(Cl)n(C)c(=O)c12 in this assay.
inactive

Answer briefly: the call reported for CCOC(=O)Nc1sc2c(c1C#N)CC(C)CC2 (configuration not stated) in this assay.
inactive

Answer briefly: the call reported for N#Cc1ccccc1Nc1ccccc1S in this assay.
inactive

---

Tested on: RPMI-8226
assay.procedure: NCI tumour cell line growth inhibition, 48 h
The source made the active and inactive calls. Rule as the data show it: active = GI50 up to about 1.1 µM and inactive = higher.
property.measured: GI50

# example entries with known answers
• COC(=O)C1=C(OC(=O)/C(=C/c2ccccc2)c2ccc(Cl)cc2)C(C(=O)OC)[C@@]2(O)[C@@H](C(=O)OC)[C@H](C)C[C@@H]1[C@@H]2C(=O)OC (stereo not given in full) = > 100 µM (inactive)
• N#Cc1nc(-c2cc([N+](=O)[O-])cc([N+](=O)[O-])c2)oc1N = > 10 µM (inactive)
• O=C(/C=C/c1ccc(OCc2ccccc2)cc1)NCc1ccc(C(=O)NCc2ccccc2)cc1 = > 100 µM (inactive)
• CO/C(=N\N=C\c1ccccc1F)c1ccncc1 = > 10 µM (inactive)

Looking for the measured GI50 of CC[P+](c1ccccc1)(N(C)C)N(C)C , can you help?
71.9 µM (inactive)

---

Test system: RPMI-8226
assay.procedure: NCI tumour cell line growth inhibition, 48 h
The source made the active and inactive calls. No stated cut-off is given here; in the data, active = GI50 up to about 1.1 µM and inactive = higher.
property.measured: GI50

# example entries with known answers
* COc1c(C)c(O)c2c(c1C)OC(c1ccccc1)CC2=O (stereo unspecified) | 36.1 µM (inactive)
* Cc1cccc(/C=N/NC(=S)NCCc2ccccn2)n1 | > 53.2 µM (inactive)
* CCC(=O)O[C@H]1CC[C@H]2[C@@H]3CCC4=C/C(=N/OC(=O)c5cccc6cc7ccccc7nc56)CC[C@]4(C)[C@H]3CC[C@]12C | 50.4 µM (inactive)
* COc1cccc(OCC(=N/NC(=O)c2ccncc2)/N=C/c2ccncc2)c1 | > 100 µM (inactive)
* CON(C)C(C#N)=C(C#N)C#N | > 10 µM (inactive)
* O=c1[nH]c2cc(C(F)(F)F)ccc2nc1CBr | 5.97 µM (inactive)
* COc1ccc(-c2oc3cc(OC)c(OC)c(O)c3c(=O)c2OC)cc1 | > 100 µM (inactive)
* CC(=O)Oc1cc(S(=O)(=O)Nc2n[nH]c(Nc3ccc(C)cc3)n2)c(S)cc1Cl | > 100 µM (inactive)
* Nc1ncnc2c1ncn2[C@H]1C=C[C@@H](NO)C1 | > 100 µM (inactive)
* CC(C)=NOC(=O)Nc1cccc2c1OCO2 | > 100 µM (inactive)

Next, consider the following compound.
Looking for the measured GI50 of Clc1cccc(Cl)c1C1SCc2nc3cc4ccccc4cc3n21 (stereo unspecified) , can you help?
> 100 µM (inactive)

---

System: OVCAR-4
assay.procedure: NCI tumour cell line growth inhibition, 48 h
Calls of active or inactive are those of the source. Cut-off read from the data, not from the text of the source: active = GI50 up to about 1.1 µM and inactive = higher.
property.measured: GI50

# example entries with known answers
* O=C(Nn1c(-c2ccccc2)nc2ccccc2c1=O)c1ccc(CS)cc1 | 98.4 µM (inactive)
* c1ccc2c(C3NCCc4nc[nH]c43)cccc2c1 (stereo unspecified) | > 100 µM (inactive)
* O=C1C=CC(=O)c2c(Cl)ccc(O)c21 | 18.5 µM (inactive)
* CC1(C)CCC[C@@]2(C)C1CC[C@@]1(CO)O[C@H](C3=CC(=O)OC3O)C[C@H]12 (stereo partly specified) | 14.5 µM (inactive)

# query: GI50 | item CC/C=C/C(=O)CC(O)(C(F)(F)F)C(F)(F)F | system: OVCAR-4
> 100 µM (inactive)

# query: GI50 | item Sc1ncnc2c1ncn2C1CCCO1 (stereo unspecified) | system: OVCAR-4
51.1 µM (inactive)

---

System: IGROV-1
assay.procedure: NCI tumour cell line growth inhibition, 48 h
Calls of active or inactive are those of the source. Cut-off read from the data, not from the text of the source: active = GI50 up to about 1.1 µM and inactive = higher.
Select the correct class. Options are active, inactive and nothing else.

Use the examples below as a reference point.
• COC(=O)[C@@H](Cc1ccccc1)N1O[C@]12CCCC[C@@H]2NC(=O)OC(C)(C)C (stereo partly specified) = inactive
• CC[P+](c1ccccc1)(N(C)C)N(C)C = inactive

Answer briefly: the call reported for OCCCCCCOc1ccc(-c2cc(-c3ccccn3)nc(-c3ccccn3)c2)cc1 in this assay.
active

Answer briefly: the call reported for Clc1ccc(-c2ccc(-c3nn4c(CNc5ccccc5)nnc4s3)o2)c(Cl)c1 in this assay.
inactive

Answer briefly: the call reported for Cc1c2c(c(O)c3c(O)cccc13)C(=O)C1(O)C(=O)C(C(=O)NCNc3ccc(C(N)=O)cn3)=C(O)C(N(C)C)C1C2 (stereo unspecified) in this assay.
inactive

Answer briefly: the call reported for O=C1C=CC2(O[C@H](C3CCCCC3)[C@@H](C3CCCCC3)O2)C(SC(=O)c2ccccc2)C1 (stereo partly specified) in this assay.
inactive

Answer briefly: the call reported for CC(=O)c1c2c(cc3c1CC1(Cc4cc5c(cc4C1)C(=O)CCC5)C3)CCCC2 (stereo unspecified) in this assay.
inactive

---

Tested on: MDA-MB-231
assay.procedure: NCI tumour cell line growth inhibition, 48 h
Activity calls are given as the source filed them. No stated cut-off is given here; in the data, active = GI50 up to about 1.1 µM and inactive = higher. Where a SMILES comes first, the peptide text is derived from it. The star is where a group is joined. CH2Cl = ClC*
Select the correct class. Options are Y (active), N (inactive) and nothing else.

• COc1ccc(-c2cc(-c3ccccc3)n(C3OC(COC(C)=O)C(OC(C)=O)C(OC(C)=O)C3OC(C)=O)c(=S)c2C#N)cc1 (stereo not drawn) = N
• CC(=O)NC(CC(C)C)C(=O)NC(Cc1ccccc1)C(=O)CCl (stereo not drawn) (Ac-Leu-Phe-CH2Cl; configuration not given here) = N
• Cc1n(Cc2ccccc2)c2c([n+]1C)C(=O)c1ccccc1C2=O = Y
• CCOC(=O)CO/N=C\C1=CC(=O)C2CC1C2(C)C (stereo not drawn) = N
• Cn1c2ccccc2c(=O)c2c(O)cc3c(c21)C=CC1(CCCC1)O3 = N

Answer briefly: the call reported for Clc1ccc(C2NN=C3c4ccccc4OCC32)cc1 (stereo not drawn) in this assay.
N

Answer briefly: the call reported for CC(C)(C)c1cc(OCc2nnc3sc(Cc4ccccc4)nn23)c(Cl)cc1OCc1nnc2sc(Cc3ccccc3)nn12 in this assay.
N

Answer briefly: the call reported for CSc1c(C(=O)Nc2ccc(Cl)cc2)c(N)n(N)c(=O)c1C#N in this assay.
N

---

GI50 for assorted compounds
Tested on: SK-MEL-28
assay.procedure: NCI tumour cell line growth inhibition, 48 h
Calls of active or inactive are those of the source. Cut-off read from the data, not from the text of the source: active = GI50 up to about 1.1 µM and inactive = higher.

# example entries with known answers
• COC1C(N)C(OC2C(Oc3cccc4c(O)c5c(=O)oc6ccc(C)c7c(=O)oc(c34)c5c67)OC(C)C(O)C2(C)O)OC(C)C1O (stereo unspecified) = 0.029 µM (active)
• CN(C)c1ccc(C2=C([O-])c3cc(-[n+]4ccccc4)ccc3C2=O)cc1 = > 100 µM (inactive)
• CCC(CC)C(=O)OC[n+]1cccc(-c2c(COC(=O)NC(C)C)c(COC(=O)NC(C)C)c3n2CCC3)c1 = > 100 µM (inactive)

Looking for the measured GI50 of C=C[C@H]1C=Cc2c(OC)cccc2[C@@H]1COP1(=S)NC(C)C(c2ccccc2)O1 (stereo partly specified) , can you help?
> 100 µM (inactive)

Looking for the measured GI50 of CC(=O)NNC1=NN(C(C)=O)C2(S1)C(=O)Nc1ccc(Br)cc12 (stereo unspecified) , can you help?
> 100 µM (inactive)

Looking for the measured GI50 of c1ccc([P+](CCN2Cc3ccccc3C2)(c2ccccc2)c2ccccc2)cc1 , can you help?
2.74 µM (inactive)

Looking for the measured GI50 of O=C1CCC2(c3ccccc3)Nc3ccccc3N12 (stereo unspecified) , can you help?
> 100 µM (inactive)
